The measurements presented in this section are drawn from patent US20150165065A1.

target: T1, integrin αVβ3 (UniProt P06756 31-992; P05106 27-718); assay: phage ELISA, coated integrin, anti-M13-HRP
T1 construct: Coated on the ELISA plate
T1 sequence (P06756 31-992, chain 1 of 2): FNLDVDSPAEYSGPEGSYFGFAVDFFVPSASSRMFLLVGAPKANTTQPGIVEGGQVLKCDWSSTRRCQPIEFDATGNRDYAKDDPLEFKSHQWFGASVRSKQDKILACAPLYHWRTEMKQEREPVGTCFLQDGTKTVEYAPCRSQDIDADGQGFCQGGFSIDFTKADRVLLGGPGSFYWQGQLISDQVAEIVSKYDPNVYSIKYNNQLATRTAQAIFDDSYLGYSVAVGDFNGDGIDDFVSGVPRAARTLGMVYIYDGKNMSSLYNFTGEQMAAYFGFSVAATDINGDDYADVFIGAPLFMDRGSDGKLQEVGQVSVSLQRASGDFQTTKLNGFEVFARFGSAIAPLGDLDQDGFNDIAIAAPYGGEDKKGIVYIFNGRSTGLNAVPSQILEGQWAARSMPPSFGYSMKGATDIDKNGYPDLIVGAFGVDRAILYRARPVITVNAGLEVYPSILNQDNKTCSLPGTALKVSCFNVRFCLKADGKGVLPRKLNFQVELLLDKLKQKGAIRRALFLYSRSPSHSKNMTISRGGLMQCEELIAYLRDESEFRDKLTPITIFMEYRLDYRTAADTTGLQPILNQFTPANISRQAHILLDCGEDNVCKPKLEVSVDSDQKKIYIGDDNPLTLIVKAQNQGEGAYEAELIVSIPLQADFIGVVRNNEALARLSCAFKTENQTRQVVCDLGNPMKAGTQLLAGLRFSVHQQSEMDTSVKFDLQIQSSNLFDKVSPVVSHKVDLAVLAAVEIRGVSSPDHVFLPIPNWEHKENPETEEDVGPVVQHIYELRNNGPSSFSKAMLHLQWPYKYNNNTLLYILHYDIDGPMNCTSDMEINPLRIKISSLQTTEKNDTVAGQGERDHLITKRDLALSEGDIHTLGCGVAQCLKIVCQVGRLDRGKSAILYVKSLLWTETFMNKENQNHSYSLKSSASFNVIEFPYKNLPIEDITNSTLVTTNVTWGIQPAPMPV
T1 sequence (P05106 27-718, chain 2 of 2): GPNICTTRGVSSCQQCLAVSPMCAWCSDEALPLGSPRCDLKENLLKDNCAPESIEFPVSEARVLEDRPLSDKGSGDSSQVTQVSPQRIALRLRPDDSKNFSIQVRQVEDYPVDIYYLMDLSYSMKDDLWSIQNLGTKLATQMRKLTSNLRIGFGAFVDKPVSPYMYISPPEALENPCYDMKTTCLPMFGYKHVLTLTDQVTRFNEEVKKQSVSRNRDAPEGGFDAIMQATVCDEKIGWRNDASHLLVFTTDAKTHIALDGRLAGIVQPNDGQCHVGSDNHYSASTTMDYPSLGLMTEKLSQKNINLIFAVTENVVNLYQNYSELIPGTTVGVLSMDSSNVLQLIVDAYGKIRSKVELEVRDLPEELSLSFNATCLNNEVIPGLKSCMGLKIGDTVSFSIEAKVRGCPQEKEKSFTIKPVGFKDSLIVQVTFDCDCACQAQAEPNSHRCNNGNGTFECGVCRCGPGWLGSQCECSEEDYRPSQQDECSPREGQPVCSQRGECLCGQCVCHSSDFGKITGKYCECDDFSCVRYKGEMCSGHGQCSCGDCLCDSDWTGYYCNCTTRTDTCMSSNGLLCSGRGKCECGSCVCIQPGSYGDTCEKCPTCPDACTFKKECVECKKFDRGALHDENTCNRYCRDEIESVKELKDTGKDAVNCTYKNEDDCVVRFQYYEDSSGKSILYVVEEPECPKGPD
Label met when αvβ3 signal is at or above 0.6 OD; otherwise label not met.

| Binder | Assigned category |
| --- | --- |
| M13 phage pKK139 displaying MICA α3 domain with loop 1 insert 5.1sp and loop 3 insert 5.1spNH (designed binder, also called 1-5.1sp/3-5.1spNH; not shown: C-terminal portion of M13 gene III protein, fused at codon position 198) TVPPMVNVTSGGSGGGSVTRGDTFTQSSGGSGGGVTCRASGFYPWNITLSWRQDGVSLSHDTQQWGDVLPDGNGTYQTWVATRISGGSGGGSVTRGDTFTQSSGGSGGGCYMEHSGNHSTHPVPSGK | met |
| M13 phage pKK106 displaying wild type MICA α3 domain fused to pIII (other, also called WT; not shown: C-terminal portion of M13 gene III protein, fused at codon position 198) TVPPMVNVTRSEASEGNITVTCRASGFYPWNITLSWRQDGVSLSHDTQQWGDVLPDGNGTYQTWVATRICQGEEQRFTCYMEHSGNHSTHPVPSGK | not met |
| M13 phage pKK136 displaying MICA α3 domain with loop 1 insert 5.1sp and loop 3 insert 3.2sp (designed binder, also called 1-5.1sp/3-3.2sp; not shown: C-terminal portion of M13 gene III protein, fused at codon position 198) TVPPMVNVTSGGSGGGSVTRGDTFTQSSGGSGGGVTCRASGFYPWNITLSWRQDGVSLSHDTQQWGDVLPDGNGTYQTWVATRISGGSGGGSTSRGDHPRTQSGGSGGGCYMEHSGNHSTHPVPSGK | met |
| M13 phage pKK102 displaying MICA α3 domain with loop 1 insert 5.1sp (designed binder, also called 1-5.1sp; not shown: C-terminal portion of M13 gene III protein, fused at codon position 198) TVPPMVNVTSGGSGGGSVTRGDTFTQSSGGSGGGVTCRASGFYPWNITLSWRQDGVSLSHDTQQWGDVLPDGNGTYQTWVATRICQGEEQRFTCYMEHSGNHSTHPVPSGK | met |
| M13 phage pKK138 displaying MICA α3 domain with loop 1 insert 5.1sp and loop 3 insert 5.3sp (designed binder, also called 1-5.1sp/3-5.3sp; not shown: C-terminal portion of M13 gene III protein, fused at codon position 198) TVPPMVNVTSGGSGGGSVTRGDTFTQSSGGSGGGVTCRASGFYPWNITLSWRQDGVSLSHDTQQWGDVLPDGNGTYQTWVATRISGGSGGGSHLARGDDLTYSGGSGGGCYMEHSGNHSTHPVPSGK | met |
